# Test system: CEM cells HIV-1 protection, formazan growth assay
# assay-details: NCI AIDS Antiviral Assay
# conditions: measured here: growth of uninfected CEM cells
Where a SMILES comes first, the peptide text is derived from it. [ ]: non-standard residue; d: D form. The star is where a group is joined. X10 = CC(C)CN(C[C@@H](O)[C@H](Cc1ccc(OCC(=O)*)cc1)NC(=O)O[C@H]1CCOC1)S(=O)(=O)c1ccc(N)cc1; NMeLeu(3R-OH) = CN[C@H](C(=O)O)[C@H](O)C(C)C; NMeL = CN[C@@H](CC(C)C)C(=O)O; NMeV = CN[C@H](C(=O)O)C(C)C; dNMeS = CN[C@H](CO)C(=O)O; Abu = CC[C@H](N)C(=O)O
observation-type: IC50 (µM)
Give the quantity in µM, number only.

Look up IC50 for this compound: `COc1cc(/C=N/N=C(\N)NO)cc(OC)c1OC`
105

Look up IC50 for this compound: COC(=O)C12CCC(C(=O)OC)(Cc3c(c4ccccc4n3S(=O)(=O)c3ccccc3)C1)C2=O (stereo unspecified)
85.1

Look up IC50 for this compound: `O=c1[nH]c2cc(F)c(F)cc2nc1Cc1ccccc1`
132

Look up IC50 for this compound: `COc1ccc(Cl)cc1C(=O)c1cc(Cl)cc(S(=O)(=O)N(C)C)c1OC`
8.13

Look up IC50 for this compound: COC(=O)C1=C(O)C(C(=O)OC)[C@@]2(O)[C@@H](C(=O)OC)CC[C@@H]1[C@@H]2C(=O)OC (stereo partly specified)
38.9

Look up IC50 for this compound: OCC1OC(NC(=S)NCSCCC(F)(F)C(F)(F)C(F)(F)C(F)(F)C(F)(F)C(F)(F)F)C(O)C(O)C1O (stereo unspecified)
7.24

Look up IC50 for this compound: O=c1c(O)c(-c2cc(O)c(O)cc2O)oc2cc(O)c(C3OC(CO)C(O)C(O)C3O)c(O)c12 (stereo unspecified)
138

Look up IC50 for this compound: `COc1ccc(Cc2cc(N=O)c(C)cc2O)cc1`
12.6

Look up IC50 for this compound: `CCN(CC)CCC(=O)/C=C/c1ccc(Cl)c(Cl)c1`
5.13

Look up IC50 for this compound: `O=C(CP(=O)(c1ccccc1)c1ccccc1)c1cccc(C(=O)CP(=O)(c2ccccc2)c2ccccc2)c1`
158

Look up IC50 for this compound: `C/C(=N/NC(=S)Nc1ccc([N+](=O)[O-])cc1)c1cccc(/C(C)=N\NC(=S)Nc2ccc([N+](=O)[O-])cc2)n1`
0.479

Look up IC50 for this compound: CC[C@@H]1NC(=O)[C@H]([C@H](O)C(C)C)N(C)C(=O)[C@H](C(C)C)N(C)C(=O)[C@H](CC(C)C)N(C)C(=O)[C@H](CC(C)C)N(C)C(=O)[C@@H](C)NC(=O)[C@H](CCCCNC(=O)COc2ccc(C[C@H](NC(=O)O[C@H]3CCOC3)[C@H](O)CN(CC(C)C)S(=O)(=O)c3ccc(N)cc3)cc2)NC(=O)[C@H](CC(C)C)N(C)C(=O)[C@H](C(C)C)NC(=O)[C@H](CC(C)C)N(C)C(=O)[C@@H](CO)N(C)C1=O (cyclo([NMeLeu(3R-OH)][Abu][dNMeS][NMeL]V[NMeL]K(X10)[dA][NMeL][NMeL][NMeV]))
42.7

Look up IC50 for this compound: `Cc1ccc(-c2oc3ccccc3c(=O)c2O)cc1`
53.7

Look up IC50 for this compound: `O=S(=O)(NCCSSCCNS(=O)(=O)c1ccc2ccccc2c1)c1ccc2ccccc2c1`
64.6

Look up IC50 for this compound: `CN1CN(c2ccccc2)C2(CCN(CCCSc3ccccc3NC(=O)/C=C/c3ccccc3)CC2)C1=O`
3.31

Look up IC50 for this compound: CC(C)C1CCC(=O)CC1CCCCC1CC(=O)CC1O[Si](C)(C)C(C)(C)C (stereo unspecified)
7.24

Look up IC50 for this compound: `Cc1c(/C=N/NC(=S)N2CCCCC2)c(=O)n(-c2ccccc2)n1C`
28.8

Look up IC50 for this compound: `COc1ccc(/C(=N/O)c2ccccc2-c2nc3ccccc3c(=O)n2Nc2ccc([N+](=O)[O-])cc2[N+](=O)[O-])cc1C`
43.7
